# Test system: UACC-62
# Assay summary: Growth inhibition of human UACC62 cells assessed as cell growth at 10^-5 M after 48 hrs by sulforhodamine B assay relative to control
# Type: functional
# Condition context: UACC-62, 48 h, read-out: Activity
Measurement type: growth at 10 µM (%)
Write down the numeric answer in % and omit the unit.

Known results for molecules:
N=c1scc(-c2ccccc2)n1CC(=O)N1CCOCC1 :: 92.5
CC(=O)N1CCN(C(=O)Cn2c(-c3ccccc3)csc2=N)CC1 :: 89.6

Moving on to the next molecule.
Look up growth at 10 µM: "CN1CCN(C(=O)Cn2c(-c3ccc(Cl)cc3)csc2=N)CC1"
90.2

* * *

# Tested on: MDA-MB-435
# Assay summary: Growth inhibition of human MDA-MB-435 cells assessed as cell growth at 10^-5 M after 48 hrs by sulforhodamine B assay relative to control
# Type: functional
# Condition context: MDA-MB-435, 48 h, read-out: Activity
# reported growth at 10 µM; entries follow
Write down the numeric answer in % and omit the unit.

Look up growth at 10 µM: "N=c1scc(-c2ccccc2)n1CC(=O)N1CCOCC1"
101

* * *

# System: MDA-MB-435
# Assay summary: Growth inhibition of human MDA-MB-435 cells assessed as cell growth at 10^-5 M after 48 hrs by sulforhodamine B assay relative to control
# Format: functional
# Condition context: MDA-MB-435, 48 h, read-out: Activity
Measurement type: growth at 10 µM (%)
Write down the numeric answer in % and omit the unit.

Cc1ccc(-c2csc(=N)n2CC(=O)N2CCN(c3ccccc3)CC2)cc1 :: 92.2
CN1CCN(C(=O)Cn2c(-c3ccc(Cl)cc3)csc2=N)CC1 :: 92.2
N=c1scc(-c2ccc(Cl)cc2)n1CC(=O)N1CCN(c2ccccc2)CC1 :: 92.2

Moving on to the next molecule.
Look up growth at 10 µM: "CC(=O)N1CCN(C(=O)Cn2c(-c3ccccc3)csc2=N)CC1"
105
